test.summary: Thermal stability assessment by nanoDSC
Type: physicochemical
settings: 1 mg/mL in PBS, scan 25-100° C. at 1° C./min
observation.type: ONSET MELTING (°C)
Reply numerically in °C, unit not repeated.

[
  {
    "molecule": "SEQ ID NO: 21: optimized CTGF-binding hNGAL lipocalin mutein (protein, lipocalin mutein) QDSTSDLIPAPPLSKVPLQQNFQDNQFQGKWYVVGLAGNAILREDKQPAKMFATIYELKEDKSYDVTSVRFEAKSCSYTIKTFVPGSQPGEFTAGNIKSAPGQTSTLVRVVSTNYNQHAMVFFKAVRGARESFNIALYGRTKELTSELKENFIRFSKSLGLPENHIVFPVPIDQCIDG",
    "unit.abbreviation": "°C",
    "ONSET MELTING": 55
  },
  {
    "molecule": "SEQ ID NO: 16: optimized CTGF-binding hNGAL lipocalin mutein (protein, lipocalin mutein) QDSTSDLIPAPPLSKVPLQQNFQDNQFQGKWYVVGLAGNAILRTDKQPAKMFATIYELKEDKSYDVTSVRFEAKSCVYTIKTFVPGSQPGEFTAGNIKSAPGQTSTLVRVVSTNYNQHAMVFFKHVSQNREFFVITLYGRTKELTSELKENFIRFSKSLGLPENHIVFPVPIDQCIDG",
    "unit.abbreviation": "°C",
    "ONSET MELTING": 59
  },
  {
    "molecule": "SEQ ID NO: 5: optimized CTGF-binding hNGAL lipocalin mutein (protein, lipocalin mutein) QDSTSDLIPAPPLSKVPLQQNFQDNQFQGKWYVVGKAGNALREDKEPPKMWATIYELKEDKSYDVTHVHFLTKKCKYLIDTFVPGSQPGEFTIGAIKSGPGLTSPLVRVVSTNYNQHAMVFFKWVSQNREWFTITLYGRTKELTSELKENFIRFSKSLGLPENHIVFPVPIDQCIDG",
    "unit.abbreviation": "°C",
    "ONSET MELTING": 52
  }
]

Could you tell me which ONSET MELTING is on file for SEQ ID NO: 24: optimized CTGF-binding hNGAL lipocalin mutein (protein, lipocalin mutein) QDSTSDLIPAPPLSKVPLQQNFQDNQFQGKWYVVGVAGNAILRTDKQPAKMFATIYELKEDKSYDVTSVRFEAKSCKYTIKTFVPGSQPGEFTAGNIKSAPGQTSTLVRVVSTNYNQHAMVFFKHVSQNREIFVITLYGRTKELTSELKENFIRFSKSLGLPENHIVFPVPIDQCIDG ?
58

What value of measured ONSET MELTING is listed for SEQ ID NO: 31: optimized CTGF-binding hNGAL lipocalin mutein (protein, lipocalin mutein) QDSTSDLIPAPPLSKVPLQQNFQDNQFQGKWYVVGWAGNVKLREDKQPQKMSATIYELKEDKSYDVTEVVFEQKKCHYIIKTFVPGSQPGEFTAGDIKSPPGYTSSLVRVVSTNYNQHAMVFFKKVSQNREFFWITLYGRTKELTSELKENFIRFSKSLGLPENHIVFPVPIDQCIDG ?
59
